- Tested on: Liver microsomes
- procedureDetails: Intrinsic clearance in human liver microsomes
- Type: ADME, Microsome
experimentalReadout: CLH (L/min)

Examples from the recorded data:
CN(C(=O)c1ccc2ncsc2c1)c1ccc(OCc2ccc3ccccc3n2)cc1 = 2.2
Cn1cc(-c2ccncc2)c(-c2ccc(OCc3ccc4ccccc4n3)cc2)n1 [MARDEPODECT] = 2.2

(P) CN(C(=O)c1cc(-c2ccccn2)n[nH]1)c1ccc(OCc2ccc3ccccc3n2)cc1
(Q) CN(C(=O)c1ccncc1)c1ccc(OCc2ccc3ccccc3n2)cc1
(R) CN(C(=O)c1ccc(OCc2ccc3ccccc3n2)cc1)c1ccc2ncsc2c1
Problem: I would appreciate it if you could sort these 3 molecules by CLH, starting from the smallest number. Rank the items, then write their labels in that order.
Solution: Q, P, R
(Q: 1.1 L/min, P: 2.4 L/min, R: 6.1 L/min)

* * *

- targetUnderTest: cAMP and cAMP-inhibited cGMP 3',5'-cyclic phosphodiesterase 10A (Homo sapiens, UniProt Q9Y233)
- Sequence (Q9Y233 whole entry): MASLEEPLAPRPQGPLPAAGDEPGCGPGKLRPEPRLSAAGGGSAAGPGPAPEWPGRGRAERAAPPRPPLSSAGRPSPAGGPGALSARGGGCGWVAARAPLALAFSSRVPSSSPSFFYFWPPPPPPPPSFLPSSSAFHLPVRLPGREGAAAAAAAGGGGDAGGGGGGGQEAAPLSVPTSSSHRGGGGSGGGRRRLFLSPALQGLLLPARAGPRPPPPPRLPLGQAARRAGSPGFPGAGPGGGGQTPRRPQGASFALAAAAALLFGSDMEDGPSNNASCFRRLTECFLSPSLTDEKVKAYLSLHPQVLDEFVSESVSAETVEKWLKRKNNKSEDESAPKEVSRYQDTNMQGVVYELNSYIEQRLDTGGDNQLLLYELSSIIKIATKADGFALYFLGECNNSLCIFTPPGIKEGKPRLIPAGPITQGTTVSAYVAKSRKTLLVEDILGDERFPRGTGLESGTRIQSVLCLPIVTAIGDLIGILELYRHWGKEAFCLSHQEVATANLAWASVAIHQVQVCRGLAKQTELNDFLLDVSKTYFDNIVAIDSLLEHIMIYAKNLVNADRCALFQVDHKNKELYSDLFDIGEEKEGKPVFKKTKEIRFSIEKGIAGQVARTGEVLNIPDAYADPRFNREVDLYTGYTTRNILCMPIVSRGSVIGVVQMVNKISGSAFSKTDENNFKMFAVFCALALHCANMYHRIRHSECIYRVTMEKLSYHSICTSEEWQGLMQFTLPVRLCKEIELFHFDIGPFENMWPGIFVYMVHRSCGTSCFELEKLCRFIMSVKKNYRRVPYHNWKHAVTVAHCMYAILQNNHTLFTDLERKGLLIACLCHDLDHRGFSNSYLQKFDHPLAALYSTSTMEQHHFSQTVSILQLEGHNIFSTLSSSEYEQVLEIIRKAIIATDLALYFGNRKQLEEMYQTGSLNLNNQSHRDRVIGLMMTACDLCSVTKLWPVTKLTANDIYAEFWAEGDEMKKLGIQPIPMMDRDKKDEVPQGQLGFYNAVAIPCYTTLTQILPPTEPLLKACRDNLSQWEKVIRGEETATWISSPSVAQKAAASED
- procedureDetails: Inhibition of PDE10A (unknown origin) at 2 uM
experimentalReadout: inhibition (%)

CN(C(=O)c1ccc(OCc2ccc3ccccc3n2)cc1)c1ccccc1 = 94
CN(C(=O)c1ccc(OCc2ccc3ccccc3n2)cc1)c1ccc2nccn2c1 = 105
CN(C(=O)c1ccc2ncsc2c1)c1ccc(OCc2nc3ccccc3n2C)cc1 = 104
CN(C(=O)c1cc(-c2cccnc2)n[nH]1)c1ccc(OCc2ccc3ccccc3n2)cc1 = 101

* * *

- targetUnderTest: High affinity cGMP-specific 3',5'-cyclic phosphodiesterase 9A (Homo sapiens) (UniProt O76083)
- Sequence (O76083 whole entry): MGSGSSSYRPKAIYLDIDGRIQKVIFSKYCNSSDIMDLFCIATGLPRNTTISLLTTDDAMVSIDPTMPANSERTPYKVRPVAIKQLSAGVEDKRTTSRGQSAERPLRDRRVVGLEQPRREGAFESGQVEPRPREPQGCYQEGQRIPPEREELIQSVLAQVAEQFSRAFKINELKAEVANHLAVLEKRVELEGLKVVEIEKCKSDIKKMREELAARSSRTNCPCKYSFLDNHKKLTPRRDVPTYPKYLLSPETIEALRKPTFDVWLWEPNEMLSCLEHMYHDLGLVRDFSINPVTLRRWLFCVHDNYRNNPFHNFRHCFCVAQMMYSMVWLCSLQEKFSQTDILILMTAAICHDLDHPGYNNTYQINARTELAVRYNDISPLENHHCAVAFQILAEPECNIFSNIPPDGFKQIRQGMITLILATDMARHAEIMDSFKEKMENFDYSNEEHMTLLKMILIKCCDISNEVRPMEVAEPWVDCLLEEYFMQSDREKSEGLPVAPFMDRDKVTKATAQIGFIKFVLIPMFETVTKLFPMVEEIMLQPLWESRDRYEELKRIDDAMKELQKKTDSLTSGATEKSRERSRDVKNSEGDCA
- procedureDetails: Inhibition of PDE9A (unknown origin) at 2 uM
experimentalReadout: inhibition (%)

CN(C(=O)c1ccc(OCc2ccc3ccccc3n2)cc1)c1ccc2ncsc2c1 = 7

(1) CN(C(=O)c1ccncc1)c1ccc(OCc2ccc3ccccc3n2)cc1
(2) CN(C(=O)c1cc(-c2ccccn2)n[nH]1)c1ccc(OCc2ccc3ccccc3n2)cc1
(3) CN(C(=O)c1ccc2ncsc2c1)c1ccc(OCc2ccc3ccccc3n2)cc1
Problem: Kindly order the items shown according to inhibition, from the highest value down. Rank the items, then write their labels in that order.
Solution: 1, 3, 2

* * *

- targetUnderTest: cAMP and cAMP-inhibited cGMP 3',5'-cyclic phosphodiesterase 10A (Homo sapiens, UniProt Q9Y233)
- procedureDetails: Inhibition of PDE10A (unknown origin) at 2 uM
experimentalReadout: inhibition (%)

CN(C(=O)c1ccncc1)c1ccc(OCc2ccc3ccccc3n2)cc1 = 80
CN(C(=O)c1ccc(OCc2ccc3ccccc3n2)cc1)c1ccncc1 = 101
CN(C(=O)c1cc(-c2ccccn2)n[nH]1)c1ccc(OCc2ccc3ccccc3n2)cc1 = 100
CN(C(=O)c1ccncc1)c1ccc(OCc2cn3ccccc3n2)cc1 = 88
CN(C(=O)c1cnc(-c2cccnc2)s1)c1ccc(OCc2ccc3ccccc3n2)cc1 = 103
CN(C(=O)c1cnc(-c2ccncc2)s1)c1ccc(OCc2ccc3ccccc3n2)cc1 = 101
Cc1cccc(COc2ccc(N(C)C(=O)c3ccc4ncsc4c3)cc2)n1 = 90
CN(C(=O)c1cc(-c2ccccc2)n[nH]1)c1ccc(OCc2ccc3ccccc3n2)cc1 = 102
CN(C(=O)c1ccc(OCc2ccc3ccccc3n2)cc1)c1ccc2ncnn2c1 = 101
CN(C(=O)c1ccc2ncsc2c1)c1ccc(OCc2nc3ccccc3o2)cc1 = 98

* * *

- targetUnderTest: cAMP and cAMP-inhibited cGMP 3',5'-cyclic phosphodiesterase 10A (Homo sapiens)
- procedureDetails: Inhibition of PDE10A (unknown origin) at 2 uM
experimentalReadout: inhibition (%)

CN(C(=O)c1ccc2ncsc2c1)c1ccc(OCc2ccc3ccccc3n2)cc1 = 101

(A) CN(C(=O)c1ccc(OCc2ccc3ccccc3n2)cc1)c1ccn2ncnc2c1
(B) CN(C(=O)c1cccnc1)c1ccc(OCc2ccc3ccccc3n2)cc1
Problem: Hello, I am sorting some records. Could you say if A or B has the smaller inhibition value? Answer by quoting the chosen item's label.
Solution: B
(B: 62%, A: 100%)
